Values compiled from patent USRE47193E1.

system_under_test: TLR9 (Homo sapiens)
Sequence (Q9NR96 26-1032): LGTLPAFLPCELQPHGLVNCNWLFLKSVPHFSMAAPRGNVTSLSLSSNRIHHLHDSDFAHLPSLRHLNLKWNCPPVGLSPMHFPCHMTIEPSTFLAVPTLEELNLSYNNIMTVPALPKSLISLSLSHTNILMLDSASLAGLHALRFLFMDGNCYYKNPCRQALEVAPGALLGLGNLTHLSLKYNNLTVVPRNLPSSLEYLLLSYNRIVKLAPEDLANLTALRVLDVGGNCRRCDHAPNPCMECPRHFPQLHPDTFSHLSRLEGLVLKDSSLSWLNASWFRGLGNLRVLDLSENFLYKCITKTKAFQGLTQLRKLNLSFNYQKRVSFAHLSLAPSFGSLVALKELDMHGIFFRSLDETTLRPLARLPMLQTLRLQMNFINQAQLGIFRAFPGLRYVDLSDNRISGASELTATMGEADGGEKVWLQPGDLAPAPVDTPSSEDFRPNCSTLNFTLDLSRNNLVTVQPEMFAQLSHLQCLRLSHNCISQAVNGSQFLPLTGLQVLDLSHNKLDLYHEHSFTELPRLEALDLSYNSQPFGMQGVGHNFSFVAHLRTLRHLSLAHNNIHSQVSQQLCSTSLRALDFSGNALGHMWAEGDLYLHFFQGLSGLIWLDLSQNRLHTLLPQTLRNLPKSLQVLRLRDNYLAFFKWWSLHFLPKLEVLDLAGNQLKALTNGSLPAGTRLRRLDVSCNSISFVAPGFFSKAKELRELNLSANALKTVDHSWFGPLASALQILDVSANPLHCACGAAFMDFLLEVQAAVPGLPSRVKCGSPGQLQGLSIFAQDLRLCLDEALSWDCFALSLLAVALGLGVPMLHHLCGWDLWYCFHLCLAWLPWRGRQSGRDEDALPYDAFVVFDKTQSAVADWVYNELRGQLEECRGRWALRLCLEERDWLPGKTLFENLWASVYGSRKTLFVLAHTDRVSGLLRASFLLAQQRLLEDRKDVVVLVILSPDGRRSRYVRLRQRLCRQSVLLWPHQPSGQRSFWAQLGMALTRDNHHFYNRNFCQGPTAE
experiment: HEK-293 human TLR9 NF-kappaB luciferase reporter assay (CpG-ODN)
Format: cell-based
Set-up: stably and individually express human TLR4, TLR7 or TLR9 full-length ORF cDNAs; expressed in transfected cells; host or cells: HEK-293 (ATCC) with ELAM-1 NF-kappaB luciferase reporter
reported_conditions: ligand CpG-ODN, analyte NFkB-luciferase
Method: To identify potent and selective TLR7/8 compounds, analogs were initially screened across a cell-based panel of human TLR4, TLR7, and TLR9 reporter lines (see Pharmacology Materials and Methods for more details). […] Select compounds were then evaluated for impact in one or more of the following mouse lupus disease models: BXSB-Yaa, NZBx-NZW, and Pristane DBA/1. […]

{"compound": "C[C@@H]1CN(c2ccc(C#N)c3ncccc23)C[C@H](C(=O)N[C@H]2CNC[C@H]2F)O1.Cl [ER-899742, hydrochloride]", "IC50": "> 10 µM"}
